Target desc: T1, CXCR4 L41A (human, UniProt P61073-1 1-352, L41A)
T1 construct: human CXCR4, isoform 1 or b; source: 293T cells, transiently transfected (pcDNA3.1 CXCR4-IRES-eGFP), on cells
T1 sequence (P61073 whole entry L41A, canonical isoform): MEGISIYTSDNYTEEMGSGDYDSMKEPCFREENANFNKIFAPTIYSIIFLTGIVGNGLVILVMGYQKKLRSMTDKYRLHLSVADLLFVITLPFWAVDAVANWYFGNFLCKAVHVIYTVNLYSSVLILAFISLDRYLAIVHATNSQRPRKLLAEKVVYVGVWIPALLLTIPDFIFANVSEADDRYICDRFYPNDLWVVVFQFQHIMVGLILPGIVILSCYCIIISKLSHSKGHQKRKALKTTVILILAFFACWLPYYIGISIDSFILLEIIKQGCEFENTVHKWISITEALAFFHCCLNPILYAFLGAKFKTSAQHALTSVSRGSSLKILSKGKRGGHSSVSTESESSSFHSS
Protocol details: flow cytometry on cells; 12G5 antibody competition on 293T cells transiently transfected with CXCR4 wt or mutants (IRES-eGFP vector), eGFP-positive cells gated; serially diluted peptide with a constant concentration of CXCR4 antibody clone 12G5, 2 h; bound antibody read; IC50 by nonlinear regression
Cond: one partner purified
Measurement label: pIC50
Entry type: numeric. Quantity: pIC50, the -log10 of concentration in molar units.

Quick note, pIC50 for LVRYTKKVPQVSTPTL (source: synthetic peptide (Fmoc solid-phase synthesis, HPLC-purified)) [EPI-X4 (Alb408-423)] landed at 3.88
